- protocol-details: chemical genetic growth profiling, strain panel (AID 1159580);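 also: tested at 20 µM; growth read once vehicle control cultures reached saturation at 30 °C; lower values mean less growth of the strain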
- test-parameters: S. cerevisiae deletion strains, growth OD, locus YOR265W, strain rbl2
Among all 5,500 compounds or so, about 2,000 (36%) were called active. Not shown: some 18% with an inconclusive outcome. Rule as the data show it: active = normalized growth mostly below about 0.91 (no sharp cut-off); inconclusive = no clear call, values can overlap the other calls; inactive = mostly above about 0.92. The list shows a part of the results.
Respond only with the outcome that fits, drawn from active, inactive

Ask | For C=Cc1c2[nH]c(c1C)C=c1[nH]c(c(C)c1C=C)=CC1N=C(C=c3[nH]c(c(C)c3CCC(=O)O)=C2)C(CCC(=O)O)=C1C (centres undefined) , which call appears in the assay record?
Reply | inactive

Ask | For "CC(C)OC(=O)C(C)(C)Oc1ccc(C(=O)c2ccc(Cl)cc2)cc1" , which call appears in the assay record?
Reply | inactive

Ask | For CC1CC2C3CCC4=CC(=O)C=C[C@]4(C)[C@@]3(F)[C@@H](O)C[C@]2(C)[C@@]1(O)C(=O)CO (some centres undefined) , which call appears in the assay record?
Reply | inactive

Recorded values, source PubChem BioAssay AID1159580.
